target: full length mouse TREX1 (Mus musculus); construct: N-terminally His-Tev tagged full length mouse TREX1; made in house; host or cells: E. coli; test: mTREX1 Biochemical Assay (fluorescence, dsDNA substrate degradation); conditions: biochemical, read-out: mTREX1 IC50
pIC50: −log10 of the molar value.
endpoint-label: pIC50

As a guide, the following entries are already answered.
compound	endpoint-label	observed-result
COCCn1cc(C(c2cc(F)ccc2Cl)C(C)c2nc(C(=O)Nc3cnoc3)c(O)c(=O)n2C)cn1 (single isomer, unassigned) [Example 97 D1E1]	pIC50	8.00 to 9.00
CC(c1nc(C(=O)Nc2cnoc2)c(O)c(=O)n1C)C(c1cnn(C)c1)c1cc(Cl)ccc1C#N (single isomer, unassigned) [Example 26 D2E1]	pIC50	< 8.00

Now examine the next entry.
Query: What value of measured pIC50 is listed for CC(c1nc(C(=O)Nc2cnoc2)c(O)c(=O)n1C)C(c1ccccc1C#N)c1c[nH]nc1F (single isomer, unassigned) [Example 127 D1E2] ?
Response: < 8.00

----------
Below: a set of entries, each annotated with reported IC50.
target: full length mouse TREX1 (Mus musculus, UniProt Q91XB0); construct: N-terminally His-Tev tagged full length mouse TREX1; made in house; host or cells: E. coli; assay: mTREX1 Biochemical Assay (fluorescence, dsDNA substrate degradation); settings: biochemical, read-out: mTREX1 IC50
Sequence (Q91XB0 whole entry): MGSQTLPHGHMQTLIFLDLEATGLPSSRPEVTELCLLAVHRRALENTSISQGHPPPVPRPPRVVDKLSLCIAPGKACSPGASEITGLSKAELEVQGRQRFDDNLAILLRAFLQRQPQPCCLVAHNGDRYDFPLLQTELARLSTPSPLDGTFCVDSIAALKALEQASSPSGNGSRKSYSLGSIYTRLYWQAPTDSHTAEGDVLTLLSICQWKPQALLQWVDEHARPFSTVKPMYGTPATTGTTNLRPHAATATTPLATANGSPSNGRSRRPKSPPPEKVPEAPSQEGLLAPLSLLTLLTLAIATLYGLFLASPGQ

Query: What value of measured IC50 is listed for Cc1nn(C)cc1C(c1cc(F)ccc1Cl)C(C)c1nc(C(=O)Nc2cnoc2)c(O)c(=O)n1C (single isomer, unassigned) [Example 62 D1E1] ?
Response: > 10 nM

Query: What value of measured IC50 is listed for CCn1cc(C(c2ccccc2C#N)C(C)c2nc(C(=O)Nc3cnoc3)c(O)c(=O)n2C)cn1 (single isomer, unassigned) [Example 13 D2E1] ?
Response: > 10 nM

Query: What value of measured IC50 is listed for CC(c1nc(C(=O)Nc2cnoc2)c(O)c(=O)n1C)C(c1cnn(C2COC2)c1)c1ccccc1C#N (single isomer, unassigned) [Example 106 D2E1] ?
Response: > 10 nM

----------
biological target: full length human TREX1 (Homo sapiens); construct: N-terminally His-Tev tagged full length human TREX1; made in house; host or cells: E. coli; experiment: hTREX1 Biochemical Assay (fluorescence, dsDNA substrate degradation); conditions: biochemical, read-out: hTREX1 IC50
Sequence (Q9NSU2 whole entry): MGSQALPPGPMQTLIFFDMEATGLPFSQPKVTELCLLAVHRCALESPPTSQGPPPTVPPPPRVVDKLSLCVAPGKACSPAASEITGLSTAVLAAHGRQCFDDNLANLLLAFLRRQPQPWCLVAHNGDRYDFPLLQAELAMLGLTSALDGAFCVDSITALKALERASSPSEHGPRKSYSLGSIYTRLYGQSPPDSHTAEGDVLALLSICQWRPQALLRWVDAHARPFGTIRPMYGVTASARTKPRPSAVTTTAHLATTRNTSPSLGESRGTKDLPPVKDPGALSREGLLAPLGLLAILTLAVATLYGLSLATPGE
endpoint-label: IC50

As a guide, the following entries are already answered.
molecule	IC50
CC(c1nc(C(=O)Nc2cnoc2)c(O)c(=O)n1C)C(c1ccccc1C#N)c1cn(C)nc1C#N (single isomer, unassigned) [Example 10 D1E1]	< 1 nM
Cc1nccc(C(c2ccccc2C#N)C(C)c2nc(C(=O)Nc3cnoc3)c(O)c(=O)n2C)n1 (single isomer, unassigned) [Example 83 D2E2]	> 10 nM
Cc1cncc(C(c2ccccc2C#N)C(C)c2nc(C(=O)Nc3cnoc3)c(O)c(=O)n2C)n1 (single isomer, unassigned) [Example 53 D1E1]	> 10 nM
CC(c1nc(C(=O)Nc2cnoc2)c(O)c(=O)n1C)C(c1cnn(C)c1)c1ccccc1C#N (single isomer, unassigned) [Example 2 D1E1]	< 1 nM
CC(c1nc(C(=O)Nc2cnoc2)c(O)c(=O)n1C)C(c1cnc(C(F)(F)F)cn1)c1ccccc1C#N (single isomer, unassigned) [Example 118 D2E1]	1 to 10 nM
Cc1cc(C(c2cc(F)ccc2C#N)C(C)c2nc(C(=O)Nc3cnoc3)c(O)c(=O)n2C)nn1C (single isomer, unassigned) [Example 112 D2E1]	1 to 10 nM
Cc1ncc(C(c2cc(F)ccc2C#N)C(C)c2nc(C(=O)Nc3cnoc3)c(O)c(=O)n2C)nc1C (single isomer, unassigned) [Example 124 D2E1]	> 10 nM
Cc1ncc(C(c2ccccc2C#N)C(C)c2nc(C(=O)Nc3cnoc3)c(O)c(=O)n2C)cn1 (single isomer, unassigned) [Example 67 D1E2]	< 1 nM
CCn1cc(C(c2ccccc2C#N)C(C)c2nc(C(=O)Nc3cnoc3)c(O)c(=O)n2C)c(C)n1 (single isomer, unassigned) [Example 70 D1E2]	> 10 nM
CC(c1nc(C(=O)Nc2cnoc2)c(O)c(=O)n1C)C(c1cnn(C)c1)c1ccccc1Cl (single isomer, unassigned) [Example 77 D1E1]	< 1 nM

Query: What value of measured IC50 is listed for CC(c1nc(C(=O)Nc2cnoc2)c(O)c(=O)n1C)C(c1cnn(C)c1)c1ccncc1C#N (single isomer, unassigned) [Example 8 D1E2] ?
Response: < 1 nM

Query: What value of measured IC50 is listed for CCn1cc(C(c2ccccc2C#N)C(C)c2nc(C(=O)Nc3cnoc3)c(O)c(=O)n2C)cn1 (single isomer, unassigned) [Example 13 D2E2] ?
Response: > 10 nM

Source: patent US20240246946A1
